Source listed as patent US20260209316A1.

Target: T1, full-length Sudan GP (GPFL) (Sudan virus (SUDV), UniProt Q7T9D9 33-650)
T1 construct: also called Sudan GPFL; GP(S)FL
T1 sequence: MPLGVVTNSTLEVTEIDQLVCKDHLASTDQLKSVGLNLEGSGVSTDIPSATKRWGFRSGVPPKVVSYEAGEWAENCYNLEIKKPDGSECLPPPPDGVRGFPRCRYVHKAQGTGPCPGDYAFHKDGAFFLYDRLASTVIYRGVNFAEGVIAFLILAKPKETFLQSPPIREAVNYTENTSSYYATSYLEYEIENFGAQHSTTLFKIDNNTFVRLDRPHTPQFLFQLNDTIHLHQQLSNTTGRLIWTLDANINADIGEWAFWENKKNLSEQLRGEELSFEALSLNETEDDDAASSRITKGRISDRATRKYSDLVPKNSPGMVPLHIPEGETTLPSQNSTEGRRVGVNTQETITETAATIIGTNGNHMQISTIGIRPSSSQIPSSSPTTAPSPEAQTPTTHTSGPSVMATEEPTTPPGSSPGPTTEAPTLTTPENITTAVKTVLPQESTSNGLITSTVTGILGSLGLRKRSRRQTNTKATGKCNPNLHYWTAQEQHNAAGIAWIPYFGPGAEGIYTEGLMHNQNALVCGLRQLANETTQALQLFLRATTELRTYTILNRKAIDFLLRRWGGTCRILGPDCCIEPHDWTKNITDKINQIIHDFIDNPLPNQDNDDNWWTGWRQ
Assay: BLI, Fab, pH 7.4
measurementType: Kd

For Fab generated from 338S (Fab, V domains shown) VH: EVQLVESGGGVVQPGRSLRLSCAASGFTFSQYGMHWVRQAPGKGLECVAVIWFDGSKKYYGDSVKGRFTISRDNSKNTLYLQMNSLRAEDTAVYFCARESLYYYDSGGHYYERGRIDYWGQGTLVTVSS VL: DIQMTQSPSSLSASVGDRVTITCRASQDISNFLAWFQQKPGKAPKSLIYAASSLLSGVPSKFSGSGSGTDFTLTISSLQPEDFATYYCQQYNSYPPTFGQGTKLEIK , what is its reported Kd?
27.4 nM

For Fab generated from 382S (Fab, V domains shown, also called 382S Fab) VH: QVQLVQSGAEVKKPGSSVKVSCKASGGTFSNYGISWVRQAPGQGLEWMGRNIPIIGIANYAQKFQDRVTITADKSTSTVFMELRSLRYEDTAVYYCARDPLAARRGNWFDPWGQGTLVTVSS VL: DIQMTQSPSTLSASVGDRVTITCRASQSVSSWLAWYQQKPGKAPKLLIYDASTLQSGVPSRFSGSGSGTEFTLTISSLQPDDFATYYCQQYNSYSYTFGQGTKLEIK , what is its reported Kd?
26 nM

For Fab generated from 578S (Fab, V domains shown, also called 578S Fab) VH: EVQLVESGGGVVQPGRSLRLSCAASGFTFSSYELHWVRQAPGKGLEWVAVISYDGSSKYYADSLKGRFTISRDNSKNTLSLQMNSLRAEDTAMYYCVRQSEAYCSDGRCDWRRALDIWGQGTMVTVSP VL: DIQMTQSPSSLSASVGDRVTITCQASQDIKNYLNWYQQKPGKAPKLLIYDVSKLETGVPSRFSGSGSGTDFSFTISSLQPEDIATYYCQQYDNLPSYTFGQGTKLEIK , what is its reported Kd?
97.1 nM
